test system: SK-MEL-28; experiment: Growth inhibition of human SK-MEL-28 cells after 72 hrs by MTT assay; assay type: functional, cell-based; conditions: SK-MEL-28, 72 h
quantity kind: IC50 (nM)

a: COc1cc([C@@H]2c3cc4c(cc3[C@@H](O[C@@H]3O[C@@H]5CO[C@@H](C)O[C@H]5[C@H](O)[C@H]3O)[C@H]3COC(=O)[C@H]23)OCO4)cc(OC)c1O [ETOPOSIDE]
b: C#C[C@@H](O)/C=C/CCCCCCCCC/C=C\CCCC/C=C\CCCC/C=C\CCCCCCCCCCCCC/C=C/[C@H](O)C#C
c: C#C[C@@H](O)/C=C/CCCCCCCCCCCCC/C=C\CCCC/C=C\CCCC/C=C\C/C=C\CCCCCC(O)/C=C/[C@H](O)C#C (some centres undefined)
input: Order the 3 listed items from lowest to highest according to IC50. API: response body holds the labels in the requested order.
output: a, c, b
(a: 1000 nM, c: 3000 nM, b: 11000 nM)

Source of measurements: ChEMBL document CHEMBL3352630
